T/C values for the compounds below.
Test system: MX-1 breast xenograft, nude mice, tumor weight T/C
Assay: NCI In Vivo Anticancer Drug Screen. Data for tumor model Human Mammary Carcinoma MX-1 Xenograft (intrarenal inoculation) in NU/NU Swiss (nude) mice
Conditions: endpoint: mean tumor weight change; dose: 12.5 mg/kg/injection; schedule: Q01DX010 (sc); vehicle: Klucel (hydroxypropylcellulose) (HPC); higher = larger tumour
Records with an inconclusive call do not appear.

Use these answered entries as a reference point.
CCCCc1ccc(-n2c(C)c(COC(=O)NC)c(COC(=O)NC)c2C)cc1: 114 % of control
CCCC(=O)OCc1cc(=O)n(C)c2c3c4c(cc12)c(C)cc(=O)n4CO3: 170 % of control
O=C(CCBr)N1CCN(C(=O)CCBr)CC1: 52 % of control

[ask] What value of T/C has been reported for the following compound? [N-]=[N+]=C1N=CN=C1c1ncn[nH]1
[reply] 121 % of control

[ask] Could you do the same for C1CCC2[N-]CC3CCCCC3[N-]CC3CCCCC3[N-]CC3CCCCC3[N-]CC2C1.[Cu] (stereo not given) , please?
[reply] 178 % of control

[ask] Could you do the same for CN(Cc1cnc2nc(N)nc(N)c2n1)c1c(Cl)cc(C(=O)NC(CCC(=O)O)C(=O)O)cc1Cl (stereo not given) , please?
[reply] 86 % of control

[ask] Could you do the same for CC1CCC(NC(=O)N(CCCl)N=O)CC1 (stereo not given) , please?
[reply] 78 % of control

[ask] Could you do the same for C[C@]12C=CC(=O)C=C1CC[C@@H]1[C@@H]2[C@@H](O)C[C@@]2(C)[C@H]1CC[C@]2(O)C(=O)CO , please?
[reply] 50 % of control

[ask] Could you do the same for C=C1C(=O)OCC2C(C(=O)O)=CC3C(C)C(C)=CC123 (stereo not given) , please?
[reply] 113 % of control

[ask] Could you do the same for C[C@@H]1C[C@H]2[C@@H]3CCC4=CC(=O)C=C[C@]4(C)[C@@]3(F)[C@@H](O)C[C@]2(C)[C@@]1(O)C(=O)CO , please?
[reply] 35 % of control
